- System: HCoV-229E
- Parameters: species or system Huh-7; HTS, protection from HCoV-229E induced cell death, luminescent cell viability (CellCounting-Lite 2.0), inhibition rate
- test settings: 24 h post infection, 1 h compound pre-incubation; 10 µM; inhibitor
In all, about 3,300 compounds went through this assay and about 95 (3%) showed an effect of 50% or more. Many of the other results were omitted from the sample, so strong results are more common in it than they were.
readout name: 229E Inhibition rate

> print(dat)
                                   compound  target.of.assay  result
1  O=C[C@H](O)[C@@H](O)[C@@H](O)[C@H](O)C(=O)O [D-Galacturonic acid (hydrate)]        HCoV-229E    6.7%
2  CC1=C[C@]2(O)O[C@@]3(CC2=C(C)C)[C@@H](C)CC[C@@H]13 [Curcumenol]        HCoV-229E   64.3%
3  CC1(C)CCC[C@]2(C)[C@@H](C=O)C(C=O)=CC[C@@H]12 [Polygodial]        HCoV-229E   16.5%
4  C[C@]12CC[C@@H]3c4ccc(O)cc4CC[C@H]3[C@@H]1CC[C@H]2O [Alpha-Estradiol]        HCoV-229E   18.2%

---

- Tested on: HCoV-229E
- Set-up: species or system Huh-7; HTS, protection from HCoV-229E induced cell death, luminescent cell viability (CellCounting-Lite 2.0), inhibition rate
- test settings: 24 h post infection, 1 h compound pre-incubation; 10 µM; inhibitor
Hit rate of the full screen: of about 3,300 compounds, about 95 (3%) showed an effect of 50% or more. This excerpt belongs to a sample that is enriched for strong results.
readout name: 229E Inhibition rate (%)

molecule	units label	readout number
COc1ccc(/C=C/c2cc(OC)cc(=O)o2)cc1 [Yangonin]	%	44
CO[C@@H]1[C@H](O)[C@@H](CO)O[C@H]1n1ccc(=O)[nH]c1=O [2′-O-Methyluridine]	%	20.9
CC(C)=CCC[C@H](C)CC=O [(S)-(-)-Citronellal]	%	6.7
COc1cc2c(cc1OC)-c1cc3ccc4c(c3c(=O)n1CC2)OCO4 [8-Oxoepiberberine]	%	17.9
O=C1/C(=C/c2ccc(O)c(O)c2)COc2cc(O)ccc21 [Sappanone A]	%	15.6
CC1(C)CCC2(CO)C(=C3C=CC4C5(C)CCC(OC6OC(COC7OC(CO)C(O)C(O)C7O)C(OC7OC(CO)C(O)C(O)C7O)C(O)C6O)CC5C(C)(CO)CC4(C)C3(C)CC2O)C1 (centres unmarked) [Clinodiside A]	%	8.8
Nc1ncnc(N[C@@H]2O[C@H](CO)[C@@H](O)[C@H]2O)c1[N+](=O)[O-] [Clitocine]	%	17.5
C=C1[C@H]2C[C@H]2[C@]2(C)Cc3occ(C)c3[C@H](O)[C@@H]12 [Lindenenol]	%	28.5

---

- System: HCoV-229E
- Set-up: species or system Huh-7; HTS, protection from HCoV-229E induced cell death, luminescent cell viability (CellCounting-Lite 2.0), inhibition rate
- test settings: 24 h post infection, 1 h compound pre-incubation; 10 µM; inhibitor
About 95 (3%) of roughly 3,300 compounds showed an effect of 50% or more. Shown is part of a subset that was picked to be rich in strong results.
The entries below are paired with their reported 229E Inhibition rate.
readout name: 229E Inhibition rate (%)

> print(dat)
                                   compound  readout.number
1  C=C(C)[C@H](C)c1cc(/C=C/C(=O)c2ccc(O)cc2)c(OC)cc1O            61.6
2  O=C1C[C@@](O)(C(=O)O)[C@@H](C(=O)O)O1 [(-)-Hydroxycitric acid lactone]             7.8
3        NCc1ccccc1O [o-Hydroxybenzylamine]             9.2
4  CC(C)C(O)C(=O)O (centres unmarked) [2-Hydroxy-3-methylbutanoic acid]            20.4
5                               OCc1ccccc1O            51.5

These data points were gathered from paper PMC12431657.
